// data source = patent US9775844B2

- assayNotes: Oral PK in the rat LPS studies (free plasma concentration)
- Format: in vivo
- assayContext: plasma, oral, p.o. 0.5 mg/kg, 1.5h (time of LPS challenge), read-out: Free Plasma Conc
- Procedure: This study also includes assessment of the exposure to the compounds in plasma and lung tissues. Ref C is budesonide p.o. The compound was administered p.o. and about 1 hour later, LPS was administered intra-tracheally and plasma was collected. After about 5 hours, plasma and bronchoalveolar lavage samples were collected.
endpoint: concentration at 1.5 h

Which concentration at 1.5 h value belongs to C[C@H](NC(=O)c1c(N)nn2cccnc12)c1cc2cccc(C#Cc3cnn(C)c3)c2c(=O)n1-c1ccccc1 ?
2.1 nM
